B1: CPEB3 Ribozyme (parent)
chain: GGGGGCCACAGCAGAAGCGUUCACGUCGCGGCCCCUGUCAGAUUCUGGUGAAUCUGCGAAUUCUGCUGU

- Variants of: B1
- TEST: self-cleavage, relative activity (ratio to wild type); higher = more cleavage; co-transcriptional
Entries annotated with measured self-cleavage
// response body must contain only the number

A selection of reference data follows.
U26C U49A: 0.984
C22U U64G: 0.237
G28U G58U: 0.182
C6G U55A: 0.26
U21A C29A: 0.686
A13C C22G: 0.149
A10G A40U: 0.301
C24G G37U: 0.278

self-cleavage for U64C U67G ?
0.824

Form field: reported self-cleavage of G30U G68A
0.88

Query (variant): U26A C45A ; field requested: self-cleavage
0.828

What self-cleavage value was documented for this variant, G17A U67C ?
0.491

Source listed as the RNAGym collection of RNA variant scans (doi:10.7554/elife.80360).
